MEASUREMENT PROTOCOL: protein stability index of a GFP-peptide fusion (yeast GPS) (PSI 1-4); higher = more stable; sorted into four equal gates, so the index is relative within each strain
ASSAY SETUP: doa10∆
Please assign a class to every record based on measured protein stability index, with ranges b0: < 2; b1: ≥ 2 and < 3; b2: ≥ 3

Some solved cases for reference:
{"columns": ["POLYMER SEQUENCE", "CLASS NAME"],
 "data": [
  ["QQEAKYRNNEPAGFTHK [YDL088C/ASM4]", "b1"],
  ["FDHNDKKLSINSAARNI [PRE7]", "b1"],
  ["SFRIKQKMAKAKKQNRP [RPL39]", "b1"],
  ["EASTVPWGDYLQLETPA [BRR2]", "b0"],
  ["NVFTPEISSQIEILVKD [RRI2]", "b0"]
]}

Class label required: RLTMGNVFTPEISSQIE [RRI2]
b1

Class label required: SFGNREEFINKLVKSMN [RPL7A]
b1

Class label required: LTATPNSINKTTVPFKE [POP1]
b0

Class label required: YATQVKTDNTVDKFDFY [RPT3]
b1

Class label required: KSSVPGSAELRNSYPAS [RPN3]
b1

Class label required: PFDDDEPPLSYEQHIEN [PRP8]
b1

* * *

Measured protein stability index values are reported for all entries that follow.
MEASUREMENT PROTOCOL: protein stability index of a GFP-peptide fusion (yeast GPS) (PSI 1-4); higher = more stable; sorted into four equal gates, so the index is relative within each strain
ASSAY SETUP: pdr5∆
Lab note: write the figure by itself, no unit.

Answered examples (2):
{"columns": ["POLYMER SEQUENCE", "protein stability index"],
 "data": [
  ["NKGAKAEDVALNEQVKK [NAS6]", 2.96],
  ["MAQENSMERKVQGAAPW [MCD1]", 2.92]
]}

Give protein stability index for VSMITDHNALPQRCTFA [POP1]
3.01

Give protein stability index for ESVIEQIVKYARKGLTP [RPS13]
2.94

Give protein stability index for DESTIKRIKPNTEITQK [ECM29]
2.96

* * *

MEASUREMENT PROTOCOL: protein stability index of a GFP-peptide fusion (yeast GPS) (PSI 1-4); higher = more stable; sorted into four equal gates, so the index is relative within each strain
ASSAY SETUP: doa10∆
RECORDED ENDPOINT: protein stability index
Lab note: write the figure by itself, no unit.

Answered examples (5):
{"columns": ["POLYMER SEQUENCE", "protein stability index"],
 "data": [
  ["EERFSELFKGYLADDID [RPL5]", 3.05],
  ["RADVEDESNDIDMIADE [RPC37]", 2.95],
  ["GINNLSEIWDVSRGQSA [PRP8]", 3],
  ["AKTELNEVSLAIKKSSM [SMC2]", 3.03],
  ["EKELQNEIKQLGSDSSD [SRB4]", 2.95]
]}

Consider now this further sequence.
Give protein stability index for KKNKRALPNIENDIIKL [BRR2]
3.09

* * *

MEASUREMENT PROTOCOL: protein stability index of a GFP-peptide fusion (yeast GPS) (PSI 1-4); higher = more stable; sorted into four equal gates, so the index is relative within each strain
ASSAY SETUP: doa10∆
RECORDED ENDPOINT: protein stability index
Lab note: write the figure by itself, no unit.

{"columns": ["POLYMER SEQUENCE", "protein stability index"],
 "data": [
  ["DVIATEPQGAVTHMDQI [SMD3]", 3.03],
  ["ITKMLASDESLLRYGGA [RPN2]", 3.28],
  ["VAALVSLTEKFSQTVAD [ECM29]", 2.77]
]}

Consider now this further sequence.
Give protein stability index for GTANNNSNTTNQNSSTG [YJL041W/NSP1]
3.19

* * *

Measured protein stability index values are reported for all entries that follow.
MEASUREMENT PROTOCOL: protein stability index of a GFP-peptide fusion (yeast GPS) (PSI 1-4); higher = more stable; sorted into four equal gates, so the index is relative within each strain
ASSAY SETUP: pdr5∆
Lab note: write the figure by itself, no unit.

Give protein stability index for AIGYPTLPSVGHTLINN [RPP0]
2.65

Give protein stability index for RQIRPIMERIKSSLSLR [ITC1]
1.65

Give protein stability index for IVPGTYIQERNPTQRPQ [RPS10A]
3.08

* * *

Measured protein stability index values are reported for all entries that follow.
MEASUREMENT PROTOCOL: protein stability index of a GFP-peptide fusion (yeast GPS) (PSI 1-4); higher = more stable; sorted into four equal gates, so the index is relative within each strain
ASSAY SETUP: san1∆
Lab note: write the figure by itself, no unit.

Answered examples (5):
{"columns": ["POLYMER SEQUENCE", "protein stability index"],
 "data": [
  ["YLDADVAKLANWFLEVY [YML031W/NDC1]", 2.91],
  ["HESTSRTDQYTIDNIDS [YMR129W/POM152]", 2.9],
  ["LQQAKLRESEISQKLTN [SMC3]", 3.15],
  ["SKTWETYEMRIHKRYID [RPS20]", 1.84],
  ["WAVKEGPLAEEPIYGVQ [SNU114]", 2.76]
]}

Consider now this further sequence.
Give protein stability index for FELVSDLSYIEFLFESL [ECM29]
2.97

* * *

MEASUREMENT PROTOCOL: protein stability index of a GFP-peptide fusion (yeast GPS) (PSI 1-4); higher = more stable; sorted into four equal gates, so the index is relative within each strain
ASSAY SETUP: san1∆
Measured protein stability index values are reported for all entries that follow.
Lab note: write the figure by itself, no unit.

Answered examples (6):
{"columns": ["POLYMER SEQUENCE", "RECORDED ENDPOINT", "OBSERVED"],
 "data": [
  ["SFTLLNQLSQTNKLLFK [NUT1]", "protein stability index", 2.71],
  ["TTIQTEKVRPTPGEVAS [MCD1]", "protein stability index", 2.8],
  ["TVKFKHMDYDGNIVKEF [YMR129W/POM152]", "protein stability index", 2.67],
  ["RPDITMYCRPAPSDFSE [GRR1]", "protein stability index", 2.97],
  ["RQFSNEEVNRCYLRWQH [SNF2]", "protein stability index", 2.95],
  ["VSIKFTNAAFPFHDPEA [ECM29]", "protein stability index", 1.91]
]}

Give protein stability index for KMELVYVSDSDDSSSDN [SIR4]
2.47

Give protein stability index for KYPARRIHTNDNDIMNL [SSN3]
2.98

Give protein stability index for DPLVSLMMVEKVPDSTY [RPT6]
2.49

* * *

MEASUREMENT PROTOCOL: protein stability index of a GFP-peptide fusion (yeast GPS) (PSI 1-4); higher = more stable; sorted into four equal gates, so the index is relative within each strain
ASSAY SETUP: san1∆
Label Fulfilled when protein stability index is at or above 3; otherwise label Not fulfilled.

Some solved cases for reference:
{"columns": ["POLYMER SEQUENCE", "CLASS NAME"],
 "data": [
  ["DVDPIELVVFLPALCKK [RPL8A]", "Not fulfilled"],
  ["KANEKKESDESKSAFSF [YJL041W/NSP1]", "Fulfilled"],
  ["LSKVSLLTPDIGAVYSG [PRE8]", "Not fulfilled"]
]}

Check if protein stability index >= 3 (inclusive). Item: TFNNQDKGLLPYAIMET [RPO31]
Not fulfilled

Check if protein stability index >= 3 (inclusive). Item: KLSKILPRYQELTKEEA [SMC3]
Fulfilled

Check if protein stability index >= 3 (inclusive). Item: LLEFFELVFSKGVYLIL [YML103C/NUP188]
Not fulfilled

Check if protein stability index >= 3 (inclusive). Item: KHITVRLTAKRLIEHDP [SRP14]
Not fulfilled

Check if protein stability index >= 3 (inclusive). Item: FNYQGDELVLNFENDNE [REC8]
Not fulfilled

Check if protein stability index >= 3 (inclusive). Item: YMRLWEINETEFIRCGC [RMP1]
Fulfilled

Check if protein stability index >= 3 (inclusive). Item: RAGMTHEDEKLIPTIFR [PRP8]
Fulfilled

Check if protein stability index >= 3 (inclusive). Item: MDKKILLNINGSRKVAG [SMX2]
Not fulfilled

* * *

MEASUREMENT PROTOCOL: protein stability index of a GFP-peptide fusion (yeast GPS) (PSI 1-4); higher = more stable; sorted into four equal gates, so the index is relative within each strain
ASSAY SETUP: doa10∆
Measured protein stability index values are reported for all entries that follow.
Lab note: write the figure by itself, no unit.

Give protein stability index for SLAVRSLQDRSSLVRRN [YCS4]
2.4

Give protein stability index for ANALGGLGVNRRILAAA [SSN3]
1.77

Give protein stability index for EQWLRQFEVSDDEKNDK [SNF2]
3.41

Give protein stability index for PEMSNLYRLSTPLRDEV [PRP8]
2.76
